All figures here come from patent US20210214461A1.

Some binders, each annotated with its measured % reduction in OD.
Target: pre-existing anti-scFv903 antibodies in human serum H135 (human)
Experiment: competition ADA bridging ELISA, 100 mcg/ml competitor
# output: bare number, implied unit %

1) scFv 791 (scFv) scFv: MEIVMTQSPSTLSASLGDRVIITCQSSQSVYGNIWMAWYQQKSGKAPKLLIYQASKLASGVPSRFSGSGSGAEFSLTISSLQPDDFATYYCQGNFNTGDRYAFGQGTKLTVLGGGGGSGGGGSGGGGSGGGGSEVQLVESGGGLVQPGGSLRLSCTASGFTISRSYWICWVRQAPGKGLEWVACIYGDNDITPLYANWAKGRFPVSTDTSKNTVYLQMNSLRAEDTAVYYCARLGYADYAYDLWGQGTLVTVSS ... -95.2
2) scFv105 (scFv) scFv: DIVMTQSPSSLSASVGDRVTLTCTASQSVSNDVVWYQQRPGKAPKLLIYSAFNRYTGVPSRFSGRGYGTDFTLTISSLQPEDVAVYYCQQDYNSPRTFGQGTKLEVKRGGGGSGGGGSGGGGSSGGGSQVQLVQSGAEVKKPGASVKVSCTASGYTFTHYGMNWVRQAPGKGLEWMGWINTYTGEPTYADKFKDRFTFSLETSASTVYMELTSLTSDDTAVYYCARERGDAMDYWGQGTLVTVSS ... -23.1

// lookup % reduction in OD for scFv 903 (scFv) scFv: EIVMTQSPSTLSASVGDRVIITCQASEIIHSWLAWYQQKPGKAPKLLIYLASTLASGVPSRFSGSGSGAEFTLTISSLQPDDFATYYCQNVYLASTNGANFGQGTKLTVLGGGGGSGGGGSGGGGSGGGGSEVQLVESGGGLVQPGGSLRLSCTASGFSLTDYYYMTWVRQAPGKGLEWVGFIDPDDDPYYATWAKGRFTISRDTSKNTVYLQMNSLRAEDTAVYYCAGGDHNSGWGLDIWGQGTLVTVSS -92.5

// query: scFv 961 (scFv) scFv: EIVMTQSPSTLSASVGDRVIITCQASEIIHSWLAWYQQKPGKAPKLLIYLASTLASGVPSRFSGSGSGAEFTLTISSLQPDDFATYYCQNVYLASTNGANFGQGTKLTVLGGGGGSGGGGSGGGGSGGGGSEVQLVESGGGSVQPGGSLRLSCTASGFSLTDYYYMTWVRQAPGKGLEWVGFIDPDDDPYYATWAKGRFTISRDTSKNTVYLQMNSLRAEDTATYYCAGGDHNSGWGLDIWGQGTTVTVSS -74.7
